Listed binders paired with reported koff
Target: T1, recombinant cynomolgus monkey C5 (cynomolgus monkey, UniProt P01031 19-1676 (human entry), limits assumed)
T1 construct: also called cynoC5
T1 chain: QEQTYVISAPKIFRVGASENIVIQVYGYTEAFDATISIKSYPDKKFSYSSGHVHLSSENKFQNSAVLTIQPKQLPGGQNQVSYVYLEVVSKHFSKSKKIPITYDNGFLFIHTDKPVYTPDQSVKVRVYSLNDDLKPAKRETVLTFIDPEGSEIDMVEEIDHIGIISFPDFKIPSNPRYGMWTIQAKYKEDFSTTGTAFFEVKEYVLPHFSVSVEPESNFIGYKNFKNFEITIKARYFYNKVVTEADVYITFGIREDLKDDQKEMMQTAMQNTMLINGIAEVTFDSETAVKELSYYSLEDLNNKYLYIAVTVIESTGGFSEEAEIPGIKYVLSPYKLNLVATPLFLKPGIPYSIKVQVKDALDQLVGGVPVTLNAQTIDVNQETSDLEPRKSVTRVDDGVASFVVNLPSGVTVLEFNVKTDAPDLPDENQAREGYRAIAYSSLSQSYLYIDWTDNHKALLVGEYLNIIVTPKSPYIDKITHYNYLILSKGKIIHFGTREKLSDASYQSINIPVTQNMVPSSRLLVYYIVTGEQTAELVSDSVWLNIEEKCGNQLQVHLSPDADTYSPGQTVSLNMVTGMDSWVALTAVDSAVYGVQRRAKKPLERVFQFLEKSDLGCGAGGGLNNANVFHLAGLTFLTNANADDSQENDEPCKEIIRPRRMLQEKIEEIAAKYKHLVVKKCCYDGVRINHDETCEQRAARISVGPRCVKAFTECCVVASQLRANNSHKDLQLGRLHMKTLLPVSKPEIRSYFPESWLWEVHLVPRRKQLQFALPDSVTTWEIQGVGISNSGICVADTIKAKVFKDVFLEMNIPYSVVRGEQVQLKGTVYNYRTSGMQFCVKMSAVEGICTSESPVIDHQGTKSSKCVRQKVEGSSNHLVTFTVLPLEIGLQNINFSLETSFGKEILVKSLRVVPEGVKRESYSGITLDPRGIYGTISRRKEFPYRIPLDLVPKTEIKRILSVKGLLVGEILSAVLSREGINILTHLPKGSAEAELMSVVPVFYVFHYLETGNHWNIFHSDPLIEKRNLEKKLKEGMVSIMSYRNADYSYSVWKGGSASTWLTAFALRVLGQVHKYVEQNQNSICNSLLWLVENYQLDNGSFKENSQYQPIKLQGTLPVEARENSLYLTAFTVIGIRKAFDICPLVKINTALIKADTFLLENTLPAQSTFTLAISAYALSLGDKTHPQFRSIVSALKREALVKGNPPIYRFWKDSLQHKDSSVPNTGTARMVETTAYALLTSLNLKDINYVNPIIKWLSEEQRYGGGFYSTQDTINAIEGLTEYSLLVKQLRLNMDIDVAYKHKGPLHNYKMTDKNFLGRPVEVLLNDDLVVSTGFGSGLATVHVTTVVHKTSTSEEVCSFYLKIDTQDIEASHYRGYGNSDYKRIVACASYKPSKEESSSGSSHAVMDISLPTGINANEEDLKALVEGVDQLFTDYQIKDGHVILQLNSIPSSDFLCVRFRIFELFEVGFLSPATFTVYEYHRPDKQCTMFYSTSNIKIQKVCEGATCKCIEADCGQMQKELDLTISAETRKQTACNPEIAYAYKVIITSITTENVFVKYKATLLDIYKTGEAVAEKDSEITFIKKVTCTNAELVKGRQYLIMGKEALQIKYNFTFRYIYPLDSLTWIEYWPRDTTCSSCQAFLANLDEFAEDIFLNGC
Experiment: SPR (BIACORE T200), antibody captured by ProA/G, recombinant cynoC5 injected, 37 degrees C, pH7.4

{"columns": ["binder", "koff"],
 "data": [
  ["CFA0599 (antibody, V domains shown) VH: QSVEESGGRLVTPGTPLTLTCTVSGLSLSDNTMTWVRQAPGKGLEWIGIISFGGDAYYASWAKGRFPISKTSTTVDLRITSPTTEDTATYFCARVGAGNIFWYFDLWGPGTLVTVSS VL: AYDMTQTPASVEVSVGGTVTIKCQASESIYSALAWYQQKPGQPPKLLIYSASTLASGVPSRFKGSGSGTEYTLTISDLECADAATYYCQQYYSSTNVHNSFGGGTTVVVE", "0.00235 s⁻¹"],
  ["CFA0675 (antibody, V domains shown) VH: QSVEESGGRLVTPGTPLTLTCTVSGFSLSTYAMGWVRQAPGKGLEWIGTIDTGDNSFYANWAKGRFTISRTSTTVDLKITSPTAEDTATYFCARNDGSVYNLFNLWGPGTLVTVSS VL: DVVMTQTPASVSAAVGGTVTIKCQASENIYSALSWYQQKPGLRPRLLIYYASTLASGVPSRFKGSRSGTEFTLTISDLECADAASYYCQQYYDINSVDNTFGGGTKVVVE", "0.000378 s⁻¹"]
]}
